# tgt: Bcl-2-related protein A1 (Homo sapiens)
# test.protocol: inhibitors of Bim binding to Bfl-1, confirmation, biochemical, multiplexed, bead-based flow cytometry, HTS hits (AID 2080)
# conditions.used: Bim peptide-Bfl-1 binding
observable: EC50

For the compound shown here, COc1ccc(N2C(=O)C(Cl)=C(NC3C(=O)N(c4ccccc4)N(C)C3C)C2=O)cc1 (stereo unspecified) , give the reported EC50. 1.24 µM
